# System: ATP;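 further: ATP exposure 15 min at 22 °C before imaging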
# measurement_notes: switch fluorescence ratio, 500 uM ATP over buffer (Cy3 cluster intensity, sum of 5 cycles each) (fold (ratio)); higher = stronger signal-on switching upon ATP binding; sequences stand for … in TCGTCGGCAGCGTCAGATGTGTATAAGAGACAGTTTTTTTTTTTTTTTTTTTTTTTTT…TC
# measurement_conditions: aptamer strand: ATP DNA aptamer (quencher-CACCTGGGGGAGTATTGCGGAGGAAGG + anchor), 100 nM annealed; ATP concentration: 500 uM
quantity: switch fluorescence ratio
Answer using only a numeral; do not append any unit.

Example cases with answers are listed next.
GGGGCACGCT    0.999
TATATTTTGG    1.02
TGTTAGTATT    0.999
TTAAGAGAGG    1.01

Ask: Specify switch fluorescence ratio for CGAGGTAGGG , system ATP.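 Further: ATP exposure 15 min at 22 °C before imaging.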
Result: 1.01

Ask: Report measured switch fluorescence ratio on ATP; entry: GCGATTGGAG
Result: 1.01

Ask: Specify switch fluorescence ratio for AGATAAAGGT , system ATP.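 Further: ATP exposure 15 min at 22 °C before imaging.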
Result: 0.995

Ask: Report switch fluorescence ratio on ATP for this entry: GATCCTGGGG
Result: 0.974
